- methodNotes: Cmax in Sprague-Dawley rat at 50 mg/kg, ip measured upto 24 hrs by LC-MS analysis
- Format: ADME, organism-based
- Design: time < 24 hrs, dose 50 mg/kg, route ip
- statedConditions: in vivo
readoutLabel: Cmax (ng/mL)
Provide only the numeric value, understood in ng/mL.

[Q] Can you share its Cmax? I mean this compound: Oc1c(Cc2nccc3cc4c(cc23)OCO4)ccc2c1OCO2
[A] 8900

====

- System: MGC-803
- methodNotes: Antiproliferative activity against human MGC-803 cells assessed as reduction in cell viability after 24 hrs by MTT assay
- Format: functional, cell-based
- statedConditions: MGC-803, 24 h
I'd be grateful if you could share measured pIC50 for these entries.
pIC50 is defined as minus the log10 of a concentration measured in mol/L.

[Q] Can you share its pIC50? I mean this compound: COc1cc2c(cc1O)[C@@H]1Cc3ccc(OC)c(O)c3CN1CC2 [SCOULERINE]
[A] 4.90

[Q] Can you share its pIC50? I mean this compound: COc1cc2c(cc1O)C1Cc3ccc4c(c3CN1CC2)OCO4 (stereo not given) [CHEILANTHIFOLINE]
[A] 4.08

[Q] Can you share its pIC50? I mean this compound: c1cc2c(c3c1CC1c4cc5c(cc4CCN1C3)OCO5)OCO2 (stereo not given)
[A] 3.97

[Q] Can you share its pIC50? I mean this compound: COc1cc(/C=C/C(=O)NCCc2ccc(O)cc2)ccc1O [N-TRANS-FERULOYL TYRAMINE]
[A] 4.01

Cited source: ChEMBL document CHEMBL5143625
